Recorded values, source ChEMBL document CHEMBL1138214.

target: C-X-C chemokine receptor type 1 (Homo sapiens, UniProt P25024); assay: Displacement of [125I]hCXCL8 from human CXCR1 receptor expressed in BaF3 cells
Sequence (P25024 whole entry): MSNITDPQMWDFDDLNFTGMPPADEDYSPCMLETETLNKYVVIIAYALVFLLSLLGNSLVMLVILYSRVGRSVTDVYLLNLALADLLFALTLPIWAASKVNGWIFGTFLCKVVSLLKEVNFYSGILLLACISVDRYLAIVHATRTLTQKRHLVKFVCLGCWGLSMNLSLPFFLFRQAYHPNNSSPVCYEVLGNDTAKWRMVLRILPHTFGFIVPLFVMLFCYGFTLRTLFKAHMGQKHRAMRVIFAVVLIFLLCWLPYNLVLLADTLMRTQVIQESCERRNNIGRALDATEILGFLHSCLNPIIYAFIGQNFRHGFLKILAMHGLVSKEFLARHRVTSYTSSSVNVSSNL
Would you kindly list pIC50 for each of these molecules?
pIC50 here: minus log base 10 of the concentration, concentration in moles per litre.

Item C[C@@H](Nc1c(Nc2cccc(C(=O)N(C)C)c2O)c(=O)c1=O)c1ccccc1 has what recorded pIC50?
5.51

For CC[C@@H](Nc1c(Nc2cccc(C(=O)N(C)C)c2O)c(=O)c1=O)c1ccccc1 , what is its reported pIC50?
6.60

Can you share its pIC50? I mean this molecule: Cc1ccc([C@H](Nc2c(Nc3cccc(C(=O)N(C)C)c3O)c(=O)c2=O)C2CC2)o1
7.26

Data request, read-out pIC50, for CC[C@@H](Nc1c(Nc2cccc(C(=O)N(C)C)c2O)c(=O)c1=O)c1ccco1
7.59

pIC50 for Cc1ccc([C@H](Nc2c(Nc3cccc(C(=O)N(C)C)c3O)c(=O)c2=O)C(C)(C)C)o1 ?
7.96

Which value of pIC50 has been reported for Cc1ccc([C@@H](C)Nc2c(Nc3cccc(C(=O)N(C)C)c3O)c(=O)c2=O)o1 in the records?
6.11

# lookup: pIC50 of CC[C@@H](Nc1c(Nc2cccc(C(=O)N(C)C)c2O)c(=O)c1=O)c1cccc(F)c1
6.71

Entry under review: CCC(CC)Nc1c(Nc2cccc(C(=O)N(C)C)c2O)c(=O)c1=O . Reported pIC50?
6.04

I have this molecule here, CC[C@@H](Nc1c(Nc2cccc(C(=O)N(C)C)c2O)c(=O)c1=O)c1ccc2c(c1)OCO2 , and I need its recorded pIC50.
6.84

If you can, please state the reported pIC50 value of CC[C@@H](Nc1c(Nc2cccc(C(=O)N(C)C)c2O)c(=O)c1=O)c1cccs1 .
7.09

Look up pIC50 for this molecule: Cc1ccc([C@H](Nc2c(Nc3cccc(C(=O)N(C)C)c3O)c(=O)c2=O)C(C)C)o1
7.47

Using the record for CC[C@@H](Nc1c(Nc2cccc(C(=O)N(C)C)c2O)c(=O)c1=O)c1ccc(C)s1 , report its pIC50.
6.63
